Where do the numbers come from? From paper PMC11763264.

# Test system: E. coli (ATCC 25922)
# assayProcedure: microbe, parasite or virus in culture
# Assay type: cell-based, Escherichia coli
# reportedConditions: ATCC 25922, 24 h
Non-standard residues stand in square brackets, D forms with d. Residues, ends and D or L forms follow the SMILES beside them. Dip = N[C@H](C(=O)O)C(c1ccccc1)c1ccccc1
readout: MIC
Respond with a number, then the unit of measure.

[in] Look up MIC: N=C(N)NCCC[C@@H]1NC(=O)[C@H](Cc2c[nH]c3ccccc23)NC(=O)[C@H](CCCNC(=N)N)NC(=O)[C@H](C(c2ccccc2)c2ccccc2)NC(=O)[C@H](CCCNC(=N)N)NC(=O)[C@H](C(c2ccccc2)c2ccccc2)NC(=O)[C@H](CCCNC(=N)N)NC(=O)[C@H](C(c2ccccc2)c2ccccc2)NC(=O)[C@H](CCCNC(=N)N)NC(=O)[C@H](C(c2ccccc2)c2ccccc2)NC1=O [[(DipR)4(WR)]] (cyclo([Dip]R[Dip]R[Dip]R[Dip]RWR))
[out] 12.5 µM

[in] Then this compound: N=C(N)NCCC[C@H](NC(=O)[C@@H](NC(=O)[C@H](CCCNC(=N)N)NC(=O)[C@H](Cc1c[nH]c2ccccc12)NC(=O)[C@H](CCCNC(=N)N)NC(=O)[C@H](Cc1c[nH]c2ccccc12)NC(=O)[C@H](CCCNC(=N)N)NC(=O)[C@H](Cc1c[nH]c2ccccc12)NC(=O)[C@H](CCCNC(=N)N)NC(=O)[C@@H](N)Cc1c[nH]c2ccccc12)C(c1ccccc1)c1ccccc1)C(=O)O [((DipR)(WR)4)] (H-WRWRWRWR[Dip]R-OH)
[out] 12.5 µM

[in] Then this compound: N=C(N)NCCC[C@H](NC(=O)[C@@H](NC(=O)[C@H](CCCNC(=N)N)NC(=O)[C@@H](NC(=O)[C@H](CCCNC(=N)N)NC(=O)[C@H](Cc1c[nH]c2ccccc12)NC(=O)[C@H](CCCNC(=N)N)NC(=O)[C@H](Cc1c[nH]c2ccccc12)NC(=O)[C@H](CCCNC(=N)N)NC(=O)[C@@H](N)Cc1c[nH]c2ccccc12)C(c1ccccc1)c1ccccc1)C(c1ccccc1)c1ccccc1)C(=O)O [((DipR)2(WR)3)] (H-WRWRWR[Dip]R[Dip]R-OH)
[out] 6.3 µM
